run description: Dose linearity and effect of feeding, PK in cats (Example 10)
Assay type: in vivo, cat
settings: male, serum, po, 2 mg/kg, cats, Group 2, 2 mg/kg capsule, Fasted, Male, mean; read-out: AUC0-∞
metric name: AUC(0-inf) (ng·h/mL)
Please state the figure in ng·h/mL; there is no need to write the unit.

Exercise: Give AUC(0-inf) for CCc1nc2c(C)nc(C)cc2n1-c1ccc(CCNC(=O)NS(=O)(=O)c2ccc(C)cc2)cc1 [grapiprant]
Solution: 1970

---

run description: Crossover PK of tablet vs methylcellulose suspension in beagle dogs (Example 15)
Type: in vivo, beagle dog
settings: both sexes, beagle, dog, serum, po, 500 mg, beagle dogs, both sexes combined, Day 15, 500-mg tablet; read-out: average AUClast
metric name: AUC(0-t)
Hey, just the number and the unit after it is fine.

Exercise: Give AUC(0-t) for CCc1nc2c(C)nc(C)cc2n1-c1ccc(CCNC(=O)NS(=O)(=O)c2ccc(C)cc2)cc1
Solution: 430 µg·h/mL
